Form field: 3F8 Ortho Proliferation Signal 1:50 (one value per entry).
Target: T1, orthogonal hCD122 receptor (hoRb), hCD122 with H133D and Y134F (human, UniProt P14784 27-550)
T1 sequence: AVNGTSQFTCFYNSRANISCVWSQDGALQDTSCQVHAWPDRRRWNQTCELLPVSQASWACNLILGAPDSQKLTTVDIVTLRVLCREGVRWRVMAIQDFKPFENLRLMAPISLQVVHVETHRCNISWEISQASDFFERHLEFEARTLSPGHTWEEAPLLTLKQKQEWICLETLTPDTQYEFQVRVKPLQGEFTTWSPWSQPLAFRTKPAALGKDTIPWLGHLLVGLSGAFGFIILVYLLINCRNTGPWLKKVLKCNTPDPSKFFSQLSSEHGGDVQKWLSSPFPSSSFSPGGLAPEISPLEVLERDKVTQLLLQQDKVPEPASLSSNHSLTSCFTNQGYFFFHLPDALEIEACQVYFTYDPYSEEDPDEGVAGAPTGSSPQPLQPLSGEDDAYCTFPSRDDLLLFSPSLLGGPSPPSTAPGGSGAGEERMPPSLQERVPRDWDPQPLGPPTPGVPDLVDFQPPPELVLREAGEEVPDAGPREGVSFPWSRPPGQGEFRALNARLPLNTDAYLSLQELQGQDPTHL
Experiment: cell-based or functional assay
Readout: 3F8 Ortho Proliferation Signal 1:50 (cts/min)

KQVLKA (ligand) APTSSSTKKTQLQLKQLLVLLKAILNGINNYKNPKLTRMLTFKFYMPKKATELKHLQCLEEELKPLEEVLNLAQSKNFHLRPRDLISNINVIVLELKGSETTFMCEYADETATIVEFLNRWITFCQSIISTLT | 24000
I86V, SQVLKA (ligand) APTSSSTKKTQLQLSQLLVLLKAILNGINNYKNPKLTRMLTFKFYMPKKATELKHLQCLEEELKPLEEVLNLAQSKNFHLRPRDLVSNINVIVLELKGSETTFMCEYADETATIVEFLNRWITFCQSIISTLT | 15100
Q74H, SQVLKA (ligand) APTSSSTKKTQLQLSQLLVLLKAILNGINNYKNPKLTRMLTFKFYMPKKATELKHLQCLEEELKPLEEVLNLAHSKNFHLRPRDLISNINVIVLELKGSETTFMCEYADETATIVEFLNRWITFCQSIISTLT | 21200
G27K, SQVLKA (ligand) APTSSSTKKTQLQLSQLLVLLKAILNKINNYKNPKLTRMLTFKFYMPKKATELKHLQCLEEELKPLEEVLNLAQSKNFHLRPRDLISNINVIVLELKGSETTFMCEYADETATIVEFLNRWITFCQSIISTLT | 10300
